Entry source: patent US20110135573A1

assayed_target: mouse MMP-2 (R&D Systems #924-MP-010) (mouse) (UniProt P33434)
method_summary: Ki,app, enzyme inhibition assay (fluorogenic peptide substrate), medium-scale sFab
pKi: −log10 of the molar value.
Output Y for pKi not less than 8; output N otherwise.

Use these answered entries as a reference point.
binder | classification
M0273-C10 (Fab, V domains shown) VH: EVQLLESGGGLVQPGGSLRLSCAASGFTFSFYPMWWVRQAPGKGLEWVSYIYPSGGATFYADSVKGRFTISRDNSKNTLYLQMNSLRAEDTAVYYCAKDRAYGDYVGWNGFDYWGQGTLVTVSS VL: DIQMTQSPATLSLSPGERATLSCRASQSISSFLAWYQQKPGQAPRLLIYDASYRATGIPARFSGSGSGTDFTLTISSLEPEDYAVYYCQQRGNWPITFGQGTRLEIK | N
M0307-F04 (Fab, V domains shown) VH: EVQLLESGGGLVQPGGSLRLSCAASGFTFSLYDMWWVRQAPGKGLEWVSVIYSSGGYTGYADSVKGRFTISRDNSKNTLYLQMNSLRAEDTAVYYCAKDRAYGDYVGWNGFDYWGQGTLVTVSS VL: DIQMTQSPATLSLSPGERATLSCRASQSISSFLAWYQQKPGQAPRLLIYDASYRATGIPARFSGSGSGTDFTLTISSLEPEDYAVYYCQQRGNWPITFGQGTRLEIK | Y
M0256-D11 (Fab, V domains shown) VH: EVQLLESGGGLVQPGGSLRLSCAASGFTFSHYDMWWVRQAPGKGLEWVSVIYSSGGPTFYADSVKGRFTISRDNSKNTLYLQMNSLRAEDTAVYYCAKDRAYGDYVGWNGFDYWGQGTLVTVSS VL: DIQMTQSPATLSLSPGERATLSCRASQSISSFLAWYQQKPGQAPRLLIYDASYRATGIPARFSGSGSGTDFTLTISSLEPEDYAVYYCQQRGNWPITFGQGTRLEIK | Y

query: API: above_or_equal(metric=pKi, cutoff=8) for item M0273-B10 (Fab, V domains shown) VH: EVQLLESGGGLVQPGGSLRLSCAASGFTFSKYAMIWVRQAPGKGLEWVSWIPPSGGYTSYADSVKGRFTISRDNSKNTLYLQMNSLRAEDTAVYYCAKDRAYGDYVGWNGFDYWGQGTLVTVSS VL: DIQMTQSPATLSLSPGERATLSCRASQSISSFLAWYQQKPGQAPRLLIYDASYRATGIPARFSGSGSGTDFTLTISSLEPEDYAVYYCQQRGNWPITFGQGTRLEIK
result: N
